Reported values of MIC CL5137 for individual entries
tested on: Enterococcus faecium CL5137, VanA; assay: MIC susceptibility test; type: cell-based; details: Enterococcus faecium CL5137, VanA

Example cases with answers are listed next.
compound | measure | measuredValue
CNC(CC(C)C)C(=O)NC1C(=O)NC(CC(N)=O)C(=O)NC2C(=O)NC3C(=O)NC(C(=O)NC(C(=O)O)c4cc(O)cc(O)c4-c4cc3ccc4O)C(O)c3ccc(c(Cl)c3)Oc3cc2cc(c3OC2OC(CSc3nc(N)n[nH]3)C(O)C(O)C2OC2CC(C)(N)C(O)C(C)O2)Oc2ccc(cc2Cl)C1O (stereo not drawn) | MIC CL5137 | 50< μg/mL
CNC(CC(C)C)C(=O)NC1C(=O)NC(CC(N)=O)C(=O)NC2C(=O)NC3C(=O)NC(C(=O)NC(C(=O)O)c4cc(O)cc(O)c4-c4cc3ccc4O)C(O)c3ccc(c(Cl)c3)Oc3cc2cc(c3OC2OC(CI)C(O)C(O)C2OC2CC(C)(N)C(O)C(C)O2)Oc2ccc(cc2Cl)C1O (stereo not drawn) | MIC CL5137 | 50< μg/mL
CNC(CC(C)C)C(=O)NC1C(=O)NC(CC(N)=O)C(=O)NC2C(=O)NC3C(=O)NC(C(=O)NC(C(=O)O)c4cc(O)cc(O)c4-c4cc3ccc4O)C(O)c3ccc(c(Cl)c3)Oc3cc2cc(c3OC2OC(CNCc3ccc(-c4ccc(Cl)cc4)o3)C(O)C(O)C2OC2CC(C)(NCc3ccc(-c4ccc(Cl)cc4)cc3)C(O)C(C)O2)Oc2ccc(cc2Cl)C1O (stereo not drawn) | MIC CL5137 | 6.3 µg/mL
CNC(CC(C)C)C(=O)NC1C(=O)NC(CC(N)=O)C(=O)NC2C(=O)NC3C(=O)NC(C(=O)NC(C(=O)O)c4cc(O)cc(O)c4-c4cc3ccc4O)C(O)c3ccc(c(Cl)c3)Oc3cc2cc(c3OC2OC(CNC(=O)c3cnc4ccccc4n3)C(O)C(O)C2OC2CC(C)(N)C(O)C(C)O2)Oc2ccc(cc2Cl)C1O (stereo not drawn) | MIC CL5137 | 50< μg/mL
CNC(CC(C)C)C(=O)NC1C(=O)NC(CC(N)=O)C(=O)NC2C(=O)NC3C(=O)NC(C(=O)NC(C(=O)O)c4cc(O)cc(O)c4-c4cc3ccc4O)C(O)c3ccc(c(Cl)c3)Oc3cc2cc(c3OC2OC(CNC(=O)c3ccc(-c4ccc(Cl)cc4)cc3)C(O)C(O)C2OC2CC(C)(N)C(O)C(C)O2)Oc2ccc(cc2Cl)C1O (stereo not drawn) | MIC CL5137 | 50< μg/mL

Input line: Query (compound): CCCCCCCCCCNC1(C)CC(OC2C(Oc3c4cc5cc3Oc3ccc(cc3Cl)C(O)C3NC(=O)C(NC(=O)C5NC(=O)C(CC(N)=O)NC(=O)C(NC(=O)C(CC(C)C)NC)C(O)c5ccc(c(Cl)c5)O4)c4ccc(O)c(c4)-c4c(O)cc(O)cc4C(C(=O)O)NC3=O)OC(CNC(=O)c3cnc4ccccc4n3)C(O)C2O)OC(C)C1O (stereo not drawn) ; field requested: MIC CL5137
Output line: 6.3 µg/mL

----------
Reported values of MIC BC for individual entries
system: Bacillus cereus (ATCC 11778); assay: MIC susceptibility test, microdilution with MTT readout; assay type: cell-based; conditions: Bacillus ceres ATCC11778
Report only the number, with the unit µg/mL understood.

Example cases with answers are listed next.
compound | measuredValue
CNC(CC(C)C)C(=O)NC1C(=O)NC(CC(N)=O)C(=O)NC2C(=O)NC3C(=O)NC(C(=O)NC(C(=O)O)c4cc(O)cc(O)c4-c4cc3ccc4O)C(O)c3ccc(c(Cl)c3)Oc3cc2cc(c3OC2OC(Cn3ccnc3)C(O)C(O)C2OC2CC(C)(N)C(O)C(C)O2)Oc2ccc(cc2Cl)C1O (stereo not drawn) | 2.5
CNC(CC(C)C)C(=O)NC1C(=O)NC(CC(N)=O)C(=O)NC2C(=O)NC3C(=O)NC(C(=O)NC(C(=O)O)c4cc(O)cc(O)c4-c4cc3ccc4O)C(O)c3ccc(c(Cl)c3)Oc3cc2cc(c3OC2OC(CI)C(O)C(O)C2OC2CC(C)(N)C(O)C(C)O2)Oc2ccc(cc2Cl)C1O (stereo not drawn) | 0.63

In the following, a different compound is considered.
Input line: // fetch Bacillus cereus (ATCC 11778) MIC BC for CNC(CC(C)C)C(=O)NC1C(=O)NC(CC(N)=O)C(=O)NC2C(=O)NC3C(=O)NC(C(=O)NC(C(=O)O)c4cc(O)cc(O)c4-c4cc3ccc4O)C(O)c3ccc(c(Cl)c3)Oc3cc2cc(c3OC2OC(CO)C(O)C(O)C2OC2CC(C)(NCc3ccc(-c4ccc(Cl)cc4)cc3)C(O)C(C)O2)Oc2ccc(cc2Cl)C1O (stereo not drawn) [N-4-(4-chlorophenyl)benzyl vancomycin, reference compound]
Output line: 0.08

----------
tested on: Enterococcus faecium CL5137, VanA; assay: MIC susceptibility test; format: cell-based; conditions: Enterococcus faecium CL5137, VanA
measure: MIC CL5137

Example cases with answers are listed next.
compound | target | measuredValue
CNC(CC(C)C)C(=O)NC1C(=O)NC(CC(N)=O)C(=O)NC2C(=O)NC3C(=O)NC(C(=O)NC(C(=O)O)c4cc(O)cc(O)c4-c4cc3ccc4O)C(O)c3ccc(c(Cl)c3)Oc3cc2cc(c3OC2OC(COS(=O)(=O)c3c(C)cc(C)cc3C)C(O)C(O)C2OC2CC(C)(N)C(O)C(C)O2)Oc2ccc(cc2Cl)C1O (centres unmarked) | Enterococcus faecium CL5137, VanA | 50< μg/mL
CNC(CC(C)C)C(=O)NC1C(=O)NC(CC(N)=O)C(=O)NC2C(=O)NC3C(=O)NC(C(=O)NC(C(=O)O)c4cc(O)cc(O)c4-c4cc3ccc4O)C(O)c3ccc(c(Cl)c3)Oc3cc2cc(c3OC2OC(CI)C(O)C(O)C2OC2CC(C)(NCc3ccc(-c4ccc(Cl)cc4)cc3)C(O)C(C)O2)Oc2ccc(cc2Cl)C1O (centres unmarked) | Enterococcus faecium CL5137, VanA | 13 µg/mL
CNC(CC(C)C)C(=O)NC1C(=O)NC(CC(N)=O)C(=O)NC2C(=O)NC3C(=O)NC(C(=O)NC(C(=O)O)c4cc(O)cc(O)c4-c4cc3ccc4O)C(O)c3ccc(c(Cl)c3)Oc3cc2cc(c3OC2OC(Cn3ccnc3)C(O)C(O)C2OC2CC(C)(N)C(O)C(C)O2)Oc2ccc(cc2Cl)C1O (centres unmarked) | Enterococcus faecium CL5137, VanA | 50< μg/mL
CNC(CC(C)C)C(=O)NC1C(=O)NC(CC(N)=O)C(=O)NC2C(=O)NC3C(=O)NC(C(=O)NC(C(=O)O)c4cc(O)cc(O)c4-c4cc3ccc4O)C(O)c3ccc(c(Cl)c3)Oc3cc2cc(c3OC2OC(CSc3cccc(Cl)c3)C(O)C(O)C2OC2CC(C)(N)C(O)C(C)O2)Oc2ccc(cc2Cl)C1O (centres unmarked) | Enterococcus faecium CL5137, VanA | 50< μg/mL

In the following, a different compound is considered.
Input line: Query (compound): CCCCCCCCCCNC1(C)CC(OC2C(Oc3c4cc5cc3Oc3ccc(cc3Cl)C(O)C3NC(=O)C(NC(=O)C5NC(=O)C(CC(N)=O)NC(=O)C(NC(=O)C(CC(C)C)NC)C(O)c5ccc(c(Cl)c5)O4)c4ccc(O)c(c4)-c4c(O)cc(O)cc4C(C(=O)O)NC3=O)OC(CNCc3ccc(-c4ccc(Cl)cc4)o3)C(O)C2O)OC(C)C1O (centres unmarked) ; field requested: MIC CL5137
Output line: 13 µg/mL

----------
Reported values of MIC for individual entries
system: Enterococcus faecalis (ATCC 29212); experiment: MIC susceptibility test, microdilution with MTT readout; type: cell-based; details: Enterococcus faecalis ATCC29212; read-out: MIC EF

molecule | MIC
CN[C@@H](CC(C)C)C(=O)N[C@H]1C(=O)N[C@@H](CC(N)=O)C(=O)N[C@H]2C(=O)NC3C(=O)N[C@H](C(=O)N[C@@H](C(=O)O)c4cc(O)cc(O)c4-c4cc3ccc4O)[C@H](O)c3ccc(c(Cl)c3)Oc3cc2cc(c3OC2OC(CSc3nc4cc(OC)ccc4[nH]3)C(O)C(O)C2OC2CC(C)(N)C(O)C(C)O2)Oc2ccc(cc2Cl)[C@H]1O (stereo partly shown) [LXV] | 0.63 µg/mL
CN[C@@H](CC(C)C)C(=O)N[C@H]1C(=O)N[C@@H](CC(N)=O)C(=O)N[C@H]2C(=O)NC3C(=O)N[C@H](C(=O)N[C@@H](C(=O)O)c4cc(O)cc(O)c4-c4cc3ccc4O)[C@H](O)c3ccc(c(Cl)c3)Oc3cc2cc(c3OC2OC(CN)C(O)C(O)C2OC2CC(C)(NCc3ccc(-c4ccc(Cl)cc4)cc3)C(O)C(C)O2)Oc2ccc(cc2Cl)[C@H]1O (stereo partly shown) [LXXV] | ≤ 0.03 µg/mL
CN[C@@H](CC(C)C)C(=O)N[C@H]1C(=O)N[C@@H](CC(N)=O)C(=O)N[C@H]2C(=O)NC3C(=O)N[C@H](C(=O)N[C@@H](C(=O)O)c4cc(O)cc(O)c4-c4cc3ccc4O)[C@H](O)c3ccc(c(Cl)c3)Oc3cc2cc(c3OC2OC(CN=[N+]=[N-])C(O)C(O)C2OC2CC(C)(N)C(O)C(C)O2)Oc2ccc(cc2Cl)[C@H]1O (stereo partly shown) [XLVI, Glucose-C6-azide Vancomycin] | 1.3 µg/mL

In the following, a different molecule is considered.
Input line: Query (molecule): CCCCCCCCCCNC1(C)CC(OC2C(Oc3c4cc5cc3Oc3ccc(cc3Cl)[C@@H](O)[C@@H](NC(=O)[C@H](CC(C)C)NC)C(=O)N[C@@H](CC(N)=O)C(=O)N[C@H]5C(=O)NC3C(=O)N[C@H](C(=O)N[C@@H](C(=O)O)c5cc(O)cc(O)c5-c5cc3ccc5O)[C@H](O)c3ccc(c(Cl)c3)O4)OC(CSc3nc(-c4ccccc4)c(-c4ccccc4)o3)C(O)C2O)OC(C)C1O (stereo partly shown) [LXXXII] ; field requested: MIC
Output line: > 5 µg/mL

Measured values drawn from patent US6710168B1 for this set.
